details: Liquid; Resistive pulse heating
Parameter: Critical pressure (kPa)

{"Molecule": "CCc1ccccn1 [2-ethylpyridine]", "Parameter": "Critical pressure", "Assay result": 3810}
{"Molecule": "CCc1ccncc1 [γ-ethylpyridine]", "Parameter": "Critical pressure", "Assay result": 4190}
{"Molecule": "CCc1cccnc1 [3-ethylpyridine]", "Parameter": "Critical pressure", "Assay result": 4190}
{"Molecule": "CCc1ccc(C)nc1 [3-ethyl-6-methylpyridine]", "Parameter": "Critical pressure", "Assay result": 3250}

----------
conditions: Liquid; Resistive pulse heating
Parameter: Critical temperature (K)

{"Compound": "CCc1ccncc1 [γ-ethylpyridine]", "Critical temperature, K": 653}
{"Compound": "CCc1cccnc1 [3-ethylpyridine]", "Critical temperature, K": 651}
{"Compound": "CCc1ccc(C)nc1 [3-ethyl-6-methylpyridine]", "Critical temperature, K": 656}
{"Compound": "CCc1ccccn1 [2-ethylpyridine]", "Critical temperature, K": 628}
